Target: EphA2 (Homo sapiens (Human))
Experiment: EphA2 kinase inhibition, luciferase-coupled chemiluminescent assay (LCCA)
Conditions: read-out: EphA2 IC50
readout: IC50

Solved entries:
>>> df
                                   compound    reported_value
0  CCN1CCCCC1c1nc(COc2cc3ncnc(Nc4ccc(Cl)c(Cl)c4)c3cc2OC)cs1 (centres unmarked)  1000 to 20000 nM
1  COc1cc2c(Nc3ccc(Cl)c(Cl)c3)ncnc2cc1OCC1CN(CCOCCO)CCO1 (centres unmarked)  1000 to 20000 nM
2  COc1cc2c(Nc3ccc(Cl)c(Cl)c3Cl)ncnc2cc1O[C@@H]1CO[C@@H]2[C@H]1OC[C@H]2F           < 50 nM
3  COc1cc2c(Nc3ccc(Cl)c(Cl)c3)ncnc2cc1OCc1csc(C2CCCCN2)n1 (centres unmarked)     50 to 1000 nM

I need IC50 for every entry listed below, if you could help.
1. COc1cc2c(Nc3ccc(Cl)c(Cl)c3)ncnc2cc1OCc1noc(-c2ccc(C(F)(F)F)cc2)n1
2. COc1cc2c(Nc3ccc(Cl)c(Cl)c3)ncnc2cc1OCc1cccnc1
3. COc1cc2c(Nc3cc(Cl)ccc3Cl)ncnc2cc1O[C@@H]1CO[C@@H]2[C@H]1OC[C@H]2F
4. COc1cc2c(Nc3ccc(Cl)c(Cl)c3)ncnc2cc1OCc1noc(C2CCCN2)n1 (centres unmarked)

1. < 50 nM
2. 1000 to 20000 nM
3. < 50 nM
4. 1000 to 20000 nM

----------
Target: EphA2 (Homo sapiens (Human), UniProt P29317)
Sequence (P29317 598-890): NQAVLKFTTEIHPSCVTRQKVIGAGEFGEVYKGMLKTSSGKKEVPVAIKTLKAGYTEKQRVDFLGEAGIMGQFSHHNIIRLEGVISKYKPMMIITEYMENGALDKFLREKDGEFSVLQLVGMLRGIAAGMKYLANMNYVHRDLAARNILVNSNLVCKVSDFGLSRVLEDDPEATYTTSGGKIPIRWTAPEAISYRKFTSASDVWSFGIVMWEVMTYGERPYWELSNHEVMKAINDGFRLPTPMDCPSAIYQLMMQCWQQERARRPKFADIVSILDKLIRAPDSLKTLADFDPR
Test: EphA2 kinase inhibition, luciferase-coupled chemiluminescent assay (LCCA)
readout: IC50

Would you mind telling me what IC50 value was observed for COc1cc2c(Nc3ccc(Cl)c(Cl)c3)ncnc2cc1OCC1CN(C(=NC#N)N2CCCCC2)CCO1 (stereo in doubt) [Example 216] ? 0.05 to 1 µM

----------
// IC50 collected for EphB4 (Homo sapiens (Human))

                                     smiles  reported_value
0  COc1cc2c(Nc3ccc(C(F)(F)F)cc3Br)ncnc2cc1O[C@@H]1CO[C@@H]2[C@H]1OC[C@H]2F         < 50 nM

Give measured IC50 for every item shown.
1. CCO[C@H]1CO[C@H]2[C@@H]1OC[C@@H]2Oc1cc2ncnc(Nc3ccc(Br)c(Cl)c3)c2cc1OC
2. COc1cc2c(Nc3ccc(Cl)c(Cl)c3)ncnc2cc1OCc1csc([C@@H]2CSCN2)n1
3. COc1cc2c(Nc3ccc(Cl)c(Cl)c3)ncnc2cc1OCCN1C(=O)c2ccccc2C1=O
4. COc1cc2c(Nc3ccc(Cl)c(Cl)c3)ncnc2cc1OCCN1CCOCC1
5. COc1cc2c(Nc3ccc(Cl)c(Cl)c3)ncnc2cc1OCc1csc2ccc(Cl)cc12
6. COc1cc2c(Nc3ccc(Cl)c(Cl)c3)ncnc2cc1OCCN1CCCCC1

["50 to 1000 nM", "50 to 1000 nM", "< 50 nM", "50 to 1000 nM", "1000 to 20000 nM", "50 to 1000 nM"]

----------
Heads up, these molecules all have IC50 values measured for EphB4 (Homo sapiens (Human)).

Here are 5 molecules together with their reported answers.
                                   molecule  readout  reported_value
0  COc1cc2c(Nc3ccc(Cl)c(Cl)c3)ncnc2cc1OCc1noc(C2CCCN2)n1 (stereo not shown)     IC50   50 to 1000 nM
1  COc1cc2c(Nc3ccc(F)c(Cl)c3F)ncnc2cc1O[C@@H]1CO[C@@H]2[C@H]1OC[C@H]2F     IC50         < 50 nM
2  COc1cc2c(Nc3ccc(Cl)c(Cl)c3)ncnc2cc1OCc1nc(N2CCN(C)CC2)no1     IC50         < 50 nM
3  COc1cc2c(Nc3ccc(Cl)c(Cl)c3)ncnc2cc1OCC1CN(C2CCCC2)CCO1 (stereo not shown)     IC50   50 to 1000 nM
4  COc1cc2c(Nc3ccc(Cl)c(Cl)c3F)ncnc2cc1O[C@@H]1CO[C@@H]2[C@H]1OC[C@H]2F     IC50         < 50 nM

Parameter requested: IC50. Apply to each item below.
1. CCN1CCCC(c2nc(COc3cc4ncnc(Nc5ccc(Cl)c(Cl)c5)c4cc3OC)cs2)C1 (stereo not shown)
2. COc1cc2c(Nc3ccc(Br)c(Cl)c3)ncnc2cc1O[C@H]1CO[C@@H]2CCO[C@H]12

["50 to 1000 nM", "< 50 nM"]
